ASSAY SYSTEM: Cbk1(Y687A)–Mob2 complex (S. cerevisiae, UniProt P53894 251-756; P43563 1-287, Y687A)
Sequence (P53894 251-756 Y687A, chain 1 of 2): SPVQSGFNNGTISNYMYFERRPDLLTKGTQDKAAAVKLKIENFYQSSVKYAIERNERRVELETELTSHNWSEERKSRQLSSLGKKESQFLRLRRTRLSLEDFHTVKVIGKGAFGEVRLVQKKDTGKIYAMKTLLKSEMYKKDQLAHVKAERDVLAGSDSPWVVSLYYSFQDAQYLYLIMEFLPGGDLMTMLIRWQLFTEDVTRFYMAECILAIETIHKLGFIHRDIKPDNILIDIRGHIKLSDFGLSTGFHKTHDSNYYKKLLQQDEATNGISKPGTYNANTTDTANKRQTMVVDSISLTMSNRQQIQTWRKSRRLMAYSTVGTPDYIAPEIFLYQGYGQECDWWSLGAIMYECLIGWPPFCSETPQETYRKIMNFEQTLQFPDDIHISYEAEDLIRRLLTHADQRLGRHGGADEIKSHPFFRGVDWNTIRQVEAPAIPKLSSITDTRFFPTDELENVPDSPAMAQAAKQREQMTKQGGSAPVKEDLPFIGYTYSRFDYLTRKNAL
Sequence (P43563 45-287, chain 2 of 2): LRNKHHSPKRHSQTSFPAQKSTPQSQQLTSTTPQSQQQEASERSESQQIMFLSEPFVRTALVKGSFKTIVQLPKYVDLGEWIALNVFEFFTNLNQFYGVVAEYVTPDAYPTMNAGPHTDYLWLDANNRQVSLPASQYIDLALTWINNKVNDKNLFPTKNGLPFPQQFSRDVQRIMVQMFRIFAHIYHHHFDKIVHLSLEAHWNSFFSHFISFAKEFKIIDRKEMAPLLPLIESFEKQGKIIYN
ASSAY: FP
Non-standard residues stand in square brackets, D forms with d. No end group written: not given here. carboxyfluorescein = carboxyfluorescein label; pT = C[C@@H](OP(=O)(O)O)[C@H](N)C(=O)O

| BINDER | Kd (µM) |
| --- | --- |
| IGY[pT]YSRFDY-carboxyfluorescein [pepHM-P, carboxyfluorescein-labelled] | 22 |
| carboxyfluorescein-TTEQSDFKFP [pepSSD1, carboxyfluorescein-labelled] | 36 |
